Assayed Target: POU2 (OCT2 POU domain);BOB1 (OBF1, OCA-B) (human;human, UniProt P09086;Q16633 175-386;1-256, |)
Sequence 1: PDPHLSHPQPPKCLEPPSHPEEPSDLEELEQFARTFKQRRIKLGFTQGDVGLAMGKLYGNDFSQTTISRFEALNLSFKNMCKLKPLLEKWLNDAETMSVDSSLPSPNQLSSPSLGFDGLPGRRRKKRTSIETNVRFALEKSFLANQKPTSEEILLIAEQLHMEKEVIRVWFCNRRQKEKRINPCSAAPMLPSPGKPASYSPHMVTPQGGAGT
Sequence 2: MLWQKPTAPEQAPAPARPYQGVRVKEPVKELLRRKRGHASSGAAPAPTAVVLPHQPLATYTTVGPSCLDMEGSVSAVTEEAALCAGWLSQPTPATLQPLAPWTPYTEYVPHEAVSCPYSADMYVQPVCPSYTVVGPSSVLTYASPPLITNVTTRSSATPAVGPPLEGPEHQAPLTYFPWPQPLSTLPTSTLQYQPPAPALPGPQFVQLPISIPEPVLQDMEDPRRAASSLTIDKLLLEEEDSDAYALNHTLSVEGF
Assay Remarks: EMSA-SELEX-seq; with BOB1 (ternary complex band); 20 mM Tris-HCl pH 7.6, 140 mM NaCl, 10% glycerol, 0.5 mM EDTA, 0.05% Triton X-100, 0.1 mg/mL BSA, 0.1 mg/mL poly(dI-dC), 5 mM DTT, room temperature, 20 min; high values mean tight binding
Applied Conditions: protein: recombinant;recombinant; copies: 1;1; dsDNA, one strand shown
Reported Property: binding signal

What value of measured binding signal is listed for `AATACAAT` ?
0.0982 % of ANNNNAAN 8-mers

Look at this sequence and give its reported binding signal. `ACGTAAAC`
0.0405 % of ANNNNAAN 8-mers

binding signal for `AGGCAAAT` ?
2.15 % of ANNNNAAN 8-mers

Name the reported binding signal value associated with the sequence `ACCTAAAC`
0.0223 % of ANNNNAAN 8-mers

I would be grateful if you could share the reported binding signal for `ACAAGAAC` .
0.0297 % of ANNNNAAN 8-mers

What measured binding signal goes with `AGTGGAAG` ?
0.0405 % of ANNNNAAN 8-mers

So what's the measured binding signal for this one? `ATTAAAAG`
0.102 % of ANNNNAAN 8-mers

Entry `AGTGCAAT` : reported binding signal = ?
0.0396 % of ANNNNAAN 8-mers

What measured binding signal goes with `ACAAAAAC` ?
0.0405 % of ANNNNAAN 8-mers

Field request: binding signal | item: `ATATCAAC`
0.0471 % of ANNNNAAN 8-mers

Continuing:
For `AGCTGAAG` , what is its reported binding signal?
0.0223 % of ANNNNAAN 8-mers

So what's the measured binding signal for this one? `ACGGTAAA`
0.0504 % of ANNNNAAN 8-mers

Name the recorded binding signal for `AACTGAAC` .
0.0182 % of ANNNNAAN 8-mers

So what does the record say about binding signal for `ACGGGAAG` ?
0.0347 % of ANNNNAAN 8-mers

Returns the measured binding signal for the input sequence. Input: `AGTCGAAC`
0.0239 % of ANNNNAAN 8-mers

Fill blank: measured binding signal of the sequence `AAGCTAAA` is ____.
0.0347 % of ANNNNAAN 8-mers

Please look up its binding signal: `ATAGCAAA`
0.0454 % of ANNNNAAN 8-mers

// lookup binding signal for `ATTCGAAT`
0.102 % of ANNNNAAN 8-mers

Which binding signal value is on record for `ACCGGAAA` ?
0.0281 % of ANNNNAAN 8-mers
